Molecular target: Cathepsin B from bovine spleen (bovine, UniProt P07688 80-332)
Assay: cell-based or functional assay
Overview of recorded Cathepsin B inhibition test, 2 mM peptide for various binders
attributeMeasured: Cathepsin B inhibition test, 2 mM peptide

INSERT INTO results (binder, resultnumber) VALUES
  ('Ac-QNKH-OH (also: MGO-modified, site not given here) [MGO-modified Ac-QNKH-OH]', 97.8),
  ('Ac-QNKHNN-OH (also: MGO-modified, site not given here) [MGO-modified Ac-QNKHNN-OH]', 51.3),
  ('Ac-Lys-His-OH [Ac-KH-OH]', 230),
  ('Ac-QNKHNN-OH [Ac-QNKHNN-OH]', 168),
  ('Ac-KHNN-OH [Ac-KHNN-OH]', 129);

Origin of the recorded values: patent US20150337019A1
